ASSAY_COMMENT: Cytotoxicity against human RS4:11 cells expressing high level of Bcl-2 and Bcl-xL after 24 hrs by annexin V-FITC and propidium iodide staining
CONDITION_DESCRIPTION: RS4-11, 24 h

# COMPOUND, EC50
measured = [
    ("CCc1ccc(CCNC(=O)c2c(O)c(O)cc3c2C(=O)C(C)=C(C2=C(C)C(=O)c4c(cc(O)c(O)c4C(=O)NCCc4ccc(CC)cc4)C2=O)C3=O)cc1", "> 30 µM"),
    ("CC1=C(C2=C(C)C(=O)c3c(cc(O)c(O)c3C(=O)NCC(C)c3ccccc3)C2=O)C(=O)c2cc(O)c(O)c(C(=O)NCC(C)c3ccccc3)c2C1=O (stereo not drawn)", "> 30 µM"),
    ("CC1=C(C2=C(C)C(=O)c3c(cc(O)c(O)c3CCC3CCCCC3)C2=O)C(=O)c2cc(O)c(O)c(CCC3CCCCC3)c2C1=O", "15.7 µM"),
]

---

SYSTEM_TESTED: Bcl-2-related protein A1 (Homo sapiens)
Sequence (Q16548 whole entry): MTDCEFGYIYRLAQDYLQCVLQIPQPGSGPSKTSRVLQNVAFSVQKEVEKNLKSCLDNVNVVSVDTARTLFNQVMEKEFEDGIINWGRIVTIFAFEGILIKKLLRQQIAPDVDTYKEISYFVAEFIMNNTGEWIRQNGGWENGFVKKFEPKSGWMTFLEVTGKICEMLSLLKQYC
Below, each entry is listed with its recorded log10(Ki).
REPORTED_METRIC: log10(Ki) (log10 of the value in nM)

# MOLECULE, SYSTEM_TESTED, log10(Ki)
records = [
    ("CCc1ccc(CCNC(=O)c2c(O)c(O)cc3c2C(=O)C(C)=C(C2=C(C)C(=O)c4c(cc(O)c(O)c4C(=O)NCCc4ccc(CC)cc4)C2=O)C3=O)cc1", "Bcl-2-related protein A1 (Homo sapiens)", 2.94),
    ("CC1=C(C2=C(C)C(=O)c3c(cc(O)c(O)c3C(=O)Cc3ccccc3)C2=O)C(=O)c2cc(O)c(O)c(C(=O)Cc3ccccc3)c2C1=O", "Bcl-2-related protein A1 (Homo sapiens)", 2.66),
    ("CC1=C(C2=C(C)C(=O)c3c(cc(O)c(O)c3C(C)C)C2=O)C(=O)c2cc(O)c(O)c(C(C)C)c2C1=O", "Bcl-2-related protein A1 (Homo sapiens)", 3.17),
    ("CC1=C(C2=C(C)C(=O)c3c(cc(O)c(O)c3Cc3ccc(Cl)cc3)C2=O)C(=O)c2cc(O)c(O)c(Cc3ccc(Cl)cc3)c2C1=O", "Bcl-2-related protein A1 (Homo sapiens)", 2.67),
    ("CC1=C(C2=C(C)C(=O)c3c(cc(O)c(O)c3CCCc3ccccc3)C2=O)C(=O)c2cc(O)c(O)c(CCCc3ccccc3)c2C1=O", "Bcl-2-related protein A1 (Homo sapiens)", 3.55),
    ("CC1=C(C2=C(C)C(=O)c3c(cc(O)c(O)c3CC(C)C)C2=O)C(=O)c2cc(O)c(O)c(CC(C)C)c2C1=O", "Bcl-2-related protein A1 (Homo sapiens)", 2.97),
    ("CC1=C(C2=C(C)C(=O)c3c(cc(O)c(O)c3CCc3ccccc3)C2=O)C(=O)c2cc(O)c(O)c(CCc3ccccc3)c2C1=O", "Bcl-2-related protein A1 (Homo sapiens)", 3.81),
    ("CC1=C(C2=C(C)C(=O)c3c(cc(O)c(O)c3Cc3ccccc3)C2=O)C(=O)c2cc(O)c(O)c(Cc3ccccc3)c2C1=O", "Bcl-2-related protein A1 (Homo sapiens)", 2.63),
    ("CC1=C(C2=C(C)C(=O)c3c(cc(O)c(O)c3C(=O)NCC(C)c3ccccc3)C2=O)C(=O)c2cc(O)c(O)c(C(=O)NCC(C)c3ccccc3)c2C1=O (centres undefined)", "Bcl-2-related protein A1 (Homo sapiens)", 2.67),
]
